Please provide measured GI50 for the entries that follow.
Test system: CCRF-CEM
assay.info: NCI tumour cell line growth inhibition, 48 h
Active and inactive are the calls of the source. No stated cut-off is given here; in the data, active = GI50 up to about 1.1 µM and inactive = higher.

Please review the following examples before continuing.
CC1CC(C)[C@H](O)C([C@H](O)CC2CC(=O)N(C)C(=O)C2)C1 (stereo partly specified): > 100 µM (inactive)
Cc1ncc(CBr)c(CBr)c1O: 44.7 µM (inactive)
Oc1ccccc1/C=N/c1ccc(-c2nc3ccccc3s2)cc1: 6.89 µM (inactive)
c1ccc2c3c([nH]c2c1)C1c2[nH]c4ccccc4c2CCN1CC3: 13.5 µM (inactive)

Give me GI50 for each of these compounds, listed below.
1. CNC(=S)N(C)C(=S)Nn1c(=O)c(C)nn(C)c1=S
2. O=C1c2ccccc2C(=O)c2sc(Nc3ccccc3Cl)nc21

1: > 100 µM (inactive); 2: 2.75 µM (inactive)
